- Tested on: PC-3
- Method notes: NCI tumour cell line growth inhibition, 48 h
Activity calls are given as the source filed them. No stated cut-off is given here; in the data, active = GI50 up to about 1.1 µM and inactive = higher.
Outcome codes: active, inactive

1. CC(=O)NNc1nc(C)c(C(/C=C/c2ccc([N+](=O)[O-])cc2)=N/NC(N)=S)s1	inactive
2. C=C1[C@H](OC(=O)C(C)C)[C@]23CC4(O)[C@@H]5[C@@]6(C)CCC[C@]57C([C@@H]2C[C@@]1(O)[C@H](O)[C@@H]73)N4C6	inactive
3. COc1c(OC/C=C(\C)CCC=C(C)C)ccc2ccc(=O)oc12	inactive
4. Cc1ccc(NC(=O)c2cc3ccccc3c(/N=N/c3cc(S(=O)(=O)O)ccc3O)c2O)c(C)c1	inactive
5. O=C(COc1ccc(OCC(=O)NNC2=NC(c3cc(F)c(Cl)cc3Cl)CS2)c(Cl)c1)NNC1=NC(c2cc(F)c(Cl)cc2Cl)CS1 (centres undefined)	inactive
6. Cc1ccc(-c2cc(=O)c(=O)[nH][nH]2)cc1	inactive
7. COc1ccc(N/N=C2\CCOc3ccc(C)cc3C2=O)cc1	inactive
8. N=C(N)N/N=C/c1c(-c2ccc(Cl)c([N+](=O)[O-])c2)nc2sc(Cl)cn12	inactive
9. NNC(=O)c1ccccc1Nc1nc(-c2cccs2)nc2ccc(Br)cc12	inactive
10. CC(C)(C)[Si](C)(C)OC1(CCc2ccccc2OS(=O)(=O)C(F)(F)F)CCCC=C1COCc1ccccc1 (centres undefined)	inactive
11. CC(C)/C(Cl)=N\OC(=O)Nc1ccc(C#N)cc1	inactive
12. O=C1CC(C(COCc2ccccc2)OCc2ccccc2)CC(=O)N1 (centres undefined)	inactive
13. CC1(C)C[C@H](O)[C@H](O)[C@]23C(=O)O[C@H](O)[C@H]2C(C=O)=CC[C@@H]13	inactive
14. O=c1[nH]c(=O)n(COCc2ccccc2)c2ccc([N+](=O)[O-])cc12	inactive
15. c1nncn1C12C3C4C5C3C1C5C42 (centres undefined)	inactive
16. CCOC(=O)CN1C(=O)C(=O)N(c2ccc(OC)c3ccccc23)C1=O	inactive
17. COc1cc(C2c3cc4c(cc3[C@@H](Nc3ccc(F)cc3)C3COC[C@H]23)OCO4)cc(OC)c1O (some centres undefined)	inactive
18. O=C1OCc2c1cc1cc3c(cc1c2-c1ccc2c(c1)OCO2)OCO3.O=C1OCc2cc3cc4c(cc3c(-c3ccc5c(c3)OCO5)c21)OCO4	inactive
19. CC(C)(C)[Si](C)(C)O[C@@H](C(=O)OC1C=CCCC1)[C@@H](NC(=O)c1ccccc1)c1ccccc1 (some centres undefined)	inactive
20. Oc1ccc(-c2nc3cc(F)ccc3s2)cc1	inactive
21. Oc1cc(-c2cccc(F)c2)nc2cc3c(cc12)OCO3	active
22. N#CC1=C(N)OC2=C(CCCc3ccc([N+](=O)[O-])cc32)C1c1ccc(Cl)cc1 (centres undefined)	inactive
23. O=C(CN1CCOCC1)NC1=Nc2ncccc2C(=O)NN1	inactive
24. O=P(O)(O)c1ccccc1Oc1ccccc1	inactive

###

- Test system: OVCAR-5
- Method notes: NCI tumour cell line growth inhibition, 48 h
Activity calls are given as the source filed them. No stated cut-off is given here; in the data, active = GI50 up to about 1.1 µM and inactive = higher.
Outcome codes: t for active, f for inactive

1. O=c1n(Cc2ccccc2)c2ccccc2n1CC1CS1 (stereo not drawn)	f
2. COC(=O)C1=C(C)NC(=S)NC1c1ccc(N(CCCl)CCCl)cc1Cl (stereo not drawn)	f
3. COC(=O)/C(=N\NC(=O)c1ccccc1O)C(C#N)c1ccccc1 (stereo not drawn)	f
4. CCOC(=O)Nc1ccc(S(=O)(=O)OC)cc1.CCOC(=O)Nc1ccc(S(=O)(=O)OC)cc1.Cc1cn(C2CC(O)C(CO)O2)c(=O)[nH]c1=O	f
5. Oc1ccc(I)c2cccnc12	f
6. C/C(=N\n1c(Cc2ccccc2)n[nH]c1=O)c1ccc([N+](=O)[O-])cc1	f
7. CC(=O)O[C@H]1C(=O)[C@@]2(C)[C@H]([C@H](OC(=O)c3ccccc3)[C@]3(O)C[C@H](OC(=O)[C@H](O)[C@@H](NC(=O)c4cccc(N=[N+]=[N-])c4)c4ccccc4)C(C)=C1C3(C)C)[C@]1(OC(C)=O)CO[C@@H]1C[C@@H]2O	t
8. BrC(Br)=C1C(=C(Br)Br)C(Br)C1Br (stereo not drawn)	f
9. Cc1ccc(-c2cc(=O)c(=O)[nH][nH]2)cc1	f
10. C=C(C)C(=O)OC1CC2=CC(CC3(C)OC3C3OC(=O)C(=C)C13)OC2=O (stereo not drawn)	f
11. c1ccc(C2=C(c3ccccc3)Sc3nnc(CCCCCCCCc4nnc5n4NC(c4ccccc4)=C(c4ccccc4)S5)n3N2)cc1	f
12. CC(C)(Cl)C(Br)CCC(C)(Br)C(Br)CBr (stereo not drawn)	f
13. c1ccc([B-]2(c3ccccc3)OCCc3cccc[n+]32)cc1	f
14. CC(C)=CCC/C(C)=C/C=C/C(C)=C/C=C/C(C)=C/C=C/C=C(C)/C=C/C=C(C)/C=C/[C@H]1C(C(C)(C)O)CC[C@]1(C)O (stereo partly drawn)	f
15. CC(C)(C)OC(=O)N1CCC(NC(=O)NC2CCN(C(=O)OC(C)(C)C)CC2)CC1	f
16. Cc1cn(CCCCC2=NCCCN2)c(=O)[nH]c1=O	f
17. O=c1oc2ccc([N+](=O)[O-])cc2cc1-c1csc(-c2ccccc2)n1	f
18. COc1ccc(NC(=O)C(=O)Cc2ccc([N+](=O)[O-])c([N+](=O)[O-])c2CC(=O)C(=O)Nc2ccc(OC)cc2OC)c(OC)c1	f
